Where do the numbers come from? From patent US9682953B2.

- Assay target: human Fatty Acid Amide Hydrolase (FAAH) (Homo sapiens (Human))
- Sequence (O00519 30-579): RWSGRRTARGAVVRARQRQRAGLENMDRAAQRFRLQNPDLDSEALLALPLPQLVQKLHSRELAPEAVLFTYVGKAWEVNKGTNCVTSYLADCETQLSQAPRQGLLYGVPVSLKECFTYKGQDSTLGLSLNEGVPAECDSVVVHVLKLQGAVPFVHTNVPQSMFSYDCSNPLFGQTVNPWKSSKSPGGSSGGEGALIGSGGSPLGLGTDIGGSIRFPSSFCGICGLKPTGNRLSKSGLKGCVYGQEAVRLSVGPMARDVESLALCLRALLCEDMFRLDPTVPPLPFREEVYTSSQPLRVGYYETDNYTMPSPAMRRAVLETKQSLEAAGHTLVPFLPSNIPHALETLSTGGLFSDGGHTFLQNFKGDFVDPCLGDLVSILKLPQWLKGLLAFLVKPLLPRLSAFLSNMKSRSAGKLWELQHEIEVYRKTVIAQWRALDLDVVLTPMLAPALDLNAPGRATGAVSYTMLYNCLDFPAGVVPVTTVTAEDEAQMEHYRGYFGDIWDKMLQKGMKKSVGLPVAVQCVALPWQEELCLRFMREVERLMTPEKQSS
- Protocol description: biochemical
- Stated conditions: read-out: hFAAH IC50
# key: entry, value: IC50

Compound	Unit text	IC50
Nc1ccc(C(=O)NC2CCC(=Cc3cccc(Oc4ccc(C(F)(F)F)cn4)c3)CC2)cn1 (centres unmarked) [Example 2.C-1]	nM	5
O=C(NC1CCC(=Cc2cccc(Oc3ccc(C(F)(F)F)cn3)c2)CC1)c1ccc(-n2ccnn2)nc1 (centres unmarked) [Example 2.B-14]	nM	2
O=C(NC1CCC(=Cc2cccc(Oc3ccc(C(F)(F)F)cn3)c2)CC1)c1c[nH]nc1C(F)(F)F (single isomer, unassigned; (+)) [Example 20.A-7]	nM	67
O=C(NC1CCC(=Cc2cccc(Oc3ccc(C(F)(F)F)cn3)c2)CC1)c1ccc(-n2cnnc2)nc1 (centres unmarked) [Example 2.B-13]	nM	2
O=C(NC1CCC(=Cc2cccc(Oc3ccc(C(F)(F)F)cn3)c2)CC1)c1cncnc1 (single isomer, unassigned; (+)) [Example 20.A-19]	nM	14.3

----------
- Assay target: rat Fatty Acid Amide Hydrolase (FAAH) (Rattus norvegicus (Rat), UniProt P97612)
- Sequence (P97612 30-579): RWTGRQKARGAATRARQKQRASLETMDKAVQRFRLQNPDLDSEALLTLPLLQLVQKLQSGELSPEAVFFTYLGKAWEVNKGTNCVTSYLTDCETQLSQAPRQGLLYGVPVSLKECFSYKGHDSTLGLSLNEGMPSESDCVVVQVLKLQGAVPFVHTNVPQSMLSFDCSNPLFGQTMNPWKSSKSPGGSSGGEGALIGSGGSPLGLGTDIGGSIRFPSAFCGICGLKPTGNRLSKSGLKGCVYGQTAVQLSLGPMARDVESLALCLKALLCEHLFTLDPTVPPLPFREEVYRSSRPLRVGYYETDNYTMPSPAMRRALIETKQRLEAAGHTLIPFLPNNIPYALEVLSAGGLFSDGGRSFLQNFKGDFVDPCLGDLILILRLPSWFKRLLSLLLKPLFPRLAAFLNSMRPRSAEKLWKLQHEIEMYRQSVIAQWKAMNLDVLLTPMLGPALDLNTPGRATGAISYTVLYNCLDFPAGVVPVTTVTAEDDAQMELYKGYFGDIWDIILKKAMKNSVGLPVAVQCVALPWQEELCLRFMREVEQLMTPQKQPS
- Protocol description: FAAH in vitro fluorescence assay (AAMCA hydrolysis), rat enzyme
- Type: biochemical
- Stated conditions: read-out: rFAAH % inhibition at 100 nM; rat FAAH; 100 nM (tier I)
# key: entry, value: inhibition at 0.1 µM

Compound	inhibition at 0.1 µM
O=C(NC1CCC(=Cc2cccc(Oc3ccc(C(F)(F)F)cn3)c2)CC1)c1cnccn1 (centres unmarked) [Example 2.A-5]	27%
CN(C)c1ccc(C(=O)NC2CCC(=Cc3cccc(Oc4ccc(C(F)(F)F)cn4)c3)CC2)cn1 (centres unmarked) [Example 2.A-24]	31%
O=C(NC1CCC(=Cc2cccc(Oc3ccc(C(F)(F)F)cn3)c2)CC1)c1ccc(C(F)(F)F)nc1 (centres unmarked) [Example 2.A-6]	37%
Nc1ccc(C(=O)NC2CCC(=Cc3cccc(Oc4ccc(C(F)(F)F)c(C5CC5)n4)c3)CC2)cn1 (centres unmarked) [Example 2.E-19]	40%
Cc1n[nH]c(C(C)C)c1C(=O)NC1CCC(=Cc2cccc(Oc3ccc(C(F)(F)F)cn3)c2)CC1 (centres unmarked) [Example 2.A-38]	54%
N#Cc1ccc(C(=O)NC2CCC(=Cc3cccc(Oc4ccc(C(F)(F)F)cn4)c3)CC2)cn1 (centres unmarked) [Example 2.A-27]	27%
O=C(NC1CCC(=Cc2cccc(Oc3ccc(C(F)(F)F)cn3)c2)CC1)c1cncc(Cl)c1 (centres unmarked) [Example 2.A-32]	40%
Cc1nc(Oc2cccc(C=C3CCC(NC(=O)c4c[nH]nc4C(F)(F)F)CC3)c2)ccc1C(F)(F)F (centres unmarked) [Example 2.E-18]	55%
O=C(NC1CCC(=Cc2cccc(Oc3ccc(C(F)(F)F)cn3)c2)CC1)c1ccnnc1 (centres unmarked) [Example 2.A-17]	14%
O=C(NC1CCC(=Cc2cccc(Oc3ccc(C(F)(F)F)cn3)c2)CC1)c1ncccn1 (centres unmarked) [Example 2.A-16]	38%
O=C(NC1CCC(=Cc2cccc(Oc3ccc(C(F)(F)F)cn3)c2)CC1)c1nc2cccnc2s1 [Example 2.D-3]	38%
